Experiment: Stability in human plasma: short-term, freeze-thaw and long-term
Format: in vitro ADME
Settings: freeze–thaw cycles; low level
Catalogue of RE readings, one per entry.
Value kind: RE (%)

> print(dat)
                                   molecule  numeric.result
1                      O=C(O)/C=C/c1ccccc1O           -8.32
2                          O=c1ccc2ccccc2o1            7.62
3  O=c1ccc2ccc(O)cc2o1 [7-HCOU, 7-hydroxycoumarin]           -7.29
4  C=C1C[C@@]23CC[C@H]4[C@@](C)(CCC[C@@]4(C)C(=O)O)[C@@H]2CC[C@@H]1C3           -0.41

---

Test: Second screening: 60 mL of guaco syrup spiked with 100, 500, 1000 or 1500 mg of COU
Format: in vivo, human
Details: human, plasma, oral; 100 mg dosage, 10 min after syrup administration
Value kind: concentration at 10 min (ng/mL)

> print(dat)
                                  molecule  unit.tag  numeric.result
1  O=c1ccc2ccccc2o1 [COU, 1,2 benzopyrone]     ng/mL            22.1

---

Experiment: Pharmacokinetic study: volunteers orally received 60 mL of guaco syrup spiked with 1500 mg of COU, plasma by HPLC-MS/MS
Type: in vivo, human
Conditions: both sexes; human plasma, oral, 60 mL guaco syrup spiked with 1500 mg coumarin, n = 5, mean ± S.D.
Catalogue of AUC(0-t) readings, one per entry.
Value kind: AUC(0-t) (ng·h/mL)

> print(dat)
                                   molecule  numeric.result
1  O=c1ccc2ccc(O)cc2o1 [7-HCOU, 7-hydroxycoumarin]             126
2                      O=C(O)/C=C/c1ccccc1O             465
3                          O=c1ccc2ccccc2o1            1340

---

Catalogue of RE readings, one per entry.
Experiment: Post-preparative stability of extracted samples
Type: physicochemical
Conditions: post-preparative; low level
Value kind: RE

> print(dat)
                                   molecule  value.kind  result
1  O=c1ccc2ccc(O)cc2o1 [7-HCOU, 7-hydroxycoumarin]          RE  -7.73%
2  O=C(O)/C=C/c1ccccc1O [OCA, o-coumaric acid]          RE  -2.32%
3  C=C1C[C@@]23CC[C@H]4[C@@](C)(CCC[C@@]4(C)C(=O)O)[C@@H]2CC[C@@H]1C3 [KAU, kaurenoic acid]          RE  -1.70%
4   O=c1ccc2ccccc2o1 [COU, 1,2 benzopyrone]          RE  -9.55%

---

Test: Pharmacokinetic study: volunteers orally received 60 mL of guaco syrup spiked with 1500 mg of COU, plasma by HPLC-MS/MS
Type: in vivo, human
Settings: both sexes, human, plasma, oral, 1500 mg; Cl/f multiplied by the bioavailability 0.034 of ref 32; read-out: estimated clearance (Cl = 1148.0 x 0.034) (converted)
Description: The weight ranged from 63 to 88 kg and the height from 1.65 to 1.80 m. The volunteers were submitted to the medical consultations and clinical analyses before their participation in the study. […] Quantification was performed in Multiple Reaction Monitoring (MRM) mode, maintaining the dwell time at 300 and 400 ms for the positive and negative ion modes, respectively. […]
Value kind: clearance (mL/min)

> print(dat)
       entry.smiles  unit.tag  numeric.result
1  O=c1ccc2ccccc2o1    mL/min             651

Source: paper PMC4355590
